Molecular target: T1, ZER1 (residues 469–766) (human, UniProt Q7Z7L7 469-766)
T1 chain: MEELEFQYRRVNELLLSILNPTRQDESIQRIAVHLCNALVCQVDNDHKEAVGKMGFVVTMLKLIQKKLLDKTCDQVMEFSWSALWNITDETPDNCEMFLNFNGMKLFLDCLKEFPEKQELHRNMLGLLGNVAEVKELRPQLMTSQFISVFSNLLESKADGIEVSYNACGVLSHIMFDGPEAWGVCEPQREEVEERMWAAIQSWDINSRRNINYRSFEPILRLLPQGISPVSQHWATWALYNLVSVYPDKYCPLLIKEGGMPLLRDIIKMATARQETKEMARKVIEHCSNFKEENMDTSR
Assay: ITC
Returns: string. Value is Fulfilled if measured Kd is below 2 µM, and Not fulfilled if it is greater than or equal to it.

Sample answers from the record:
Binder	Classification
AFLHVGQD (Printed N-terminus MEEL is read as start Met plus native residues from 469 (by analogy with SELF in ZYG11B); C-terminal His tag of pNIC-CH left out) [AFLHVGQD peptide]	Fulfilled
TFLHVGQD (Printed N-terminus MEEL is read as start Met plus native residues from 469 (by analogy with SELF in ZYG11B); C-terminal His tag of pNIC-CH left out) [TFLHVGQD peptide]	Not fulfilled
GFLHVGQD (Printed N-terminus MEEL is read as start Met plus native residues from 469 (by analogy with SELF in ZYG11B); C-terminal His tag of pNIC-CH left out) [GFLHVGQD peptide]	Not fulfilled

Could you please tell me whether Kd recorded for SFLHVGQD (Printed N-terminus MEEL is read as start Met plus native residues from 469 (by analogy with SELF in ZYG11B); C-terminal His tag of pNIC-CH left out) [SFLHVGQD peptide] is less than 2 µM?
Fulfilled

Could you please tell me whether Kd recorded for CFLHVGQD (Printed N-terminus MEEL is read as start Met plus native residues from 469 (by analogy with SELF in ZYG11B); C-terminal His tag of pNIC-CH left out) [CFLHVGQD peptide] is less than 2 µM?
Not fulfilled
